System: MDA-MB-435 melanoma
EXPERIMENT: NCI-60 one-dose screen, 48 h (100 = growth as untreated, 0 = no growth, -100 = all killed)
CONDITION SET: 10 µM
Compounds without any hit were thinned out: in the full panel of roughly 83,000, 20% have a hit.

COMPOUND: COc1ccc(C(=O)/C=C/c2ccc(Cl)c(C(F)(F)F)c2)cc1S(N)(=O)=O
UNITS: %
growth: -96.4
--
COMPOUND: COC1CC(Cn2cc(COc3ccc4ccc(=O)oc4c3)nn2)C(OCc2ccccc2)C(OCc2ccccc2)C1OCc1ccccc1 (centres undefined)
UNITS: %
growth: 103
--
COMPOUND: CC(=O)Nc1ccc(-n2cnc3cc(-c4ccc(O)cc4)ccc32)cc1F
UNITS: %
growth: -25.7
--
COMPOUND: COc1cccc(COc2ccc(/C=C3\Oc4cc(O)ccc4C3=O)cc2)c1
UNITS: %
growth: 37.2
--
COMPOUND: C[C@H]1[C@H](C)CC[C@]2(COC(=O)CCC(=O)NCC#CCN3CCNCC3)CC[C@]3(C)C(=CC[C@@H]4[C@@]5(C)CCCNC(C)(C)[C@@H]5CC[C@]43C)[C@H]12
UNITS: %
growth: 32.4
--
COMPOUND: O=C(CNc1nc(-c2ccccc2)cs1)Nc1ccc(Br)cc1
UNITS: %
growth: -1.09
--
COMPOUND: CC1(c2ccccc2)NC(=O)N(CC(=O)Nc2ccc(C(=O)/C=C/c3ccccc3)cc2)C1=O (centres undefined)
UNITS: %
growth: -23
--
COMPOUND: O=C(CSc1nnc(-c2ccc3nc(-c4ccccc4)[nH]c3c2)o1)Nc1ccc(Br)cc1
UNITS: %
growth: 63.4
--
COMPOUND: O=C(NO)c1ccc(CNC(=O)[C@H]2Cc3c([nH]c4ccccc34)[C@H](c3ccc(Cl)cc3)N2)cc1
UNITS: %
growth: 4.26
